# METHOD_NOTES: Pharmacokinetic study, oral gavage to CD-1 mice, blood analyzed by LC-MS/MS
# Type: in vivo
# RUN_CONDITIONS: mouse, whole blood, po; 100 mg/kg, 1d-single dose, male CD-1 mice, fed, blood analysis, 0.5%CMC+0.5%Tween80
PARAMETER: AUC (µg·h/mL)
Give a bare numeral; the unit µg·h/mL is implied.

Short answer for `CON=c1nc[nH]c2c1ccn2[C@@H]1O[C@H]([C@H](O)c2ccc(Cl)c(Cl)c2)[C@@H](O)[C@H]1O.Cl` : AUC was 170

---

# METHOD_NOTES: Pharmacokinetic study, oral gavage to CD-1 mice, blood analyzed by LC-MS/MS
# Format: in vivo
# RUN_CONDITIONS: mouse, whole blood, po; 30 mg/kg, 1d-single dose, male CD-1 mice, fed, blood analysis, 0.5%CMC+0.5%Tween80
PARAMETER: AUC (ng·h/mL)
Give a bare numeral; the unit ng·h/mL is implied.

Short answer for `CON=c1nc[nH]c2c1ccn2[C@@H]1O[C@H]([C@H](O)c2ccc(Cl)c(Cl)c2)[C@@H](O)[C@H]1O.Cl` : AUC was 22900

---

Entries and their Rep 2 Live Cells [Fold Change]
# Tested on: Mec-1 cells
# METHOD_NOTES: Cell growth curves over 12 days, Mec-1
# Type: cell-based
# RUN_CONDITIONS: Mec-1, 100 nM, day 0
# Method: Live cells/mL were counted on days 3, 6, 10, and 12. […] The split factor was calculated at indicated time points by dividing the counted cells/mL by 3E5. Cell growth was extrapolated over time by multiplying the subsequent cell count by the previous split factor. Cell growth is plotted as fold change relative to DMSO-treated cells.
Give a bare numeral; the unit Fold Change is implied.

In [3]: df
Out[3]:
                                   molecule                       parameter          uom  numeric_result
0  Nc1ncnc2c1ccn2C1OC(C(O)c2ccc(Cl)c(F)c2)C(O)C1O (centres unmarked)  Rep 2 Live Cells [Fold Change]  Fold Change               1
1  CON=c1nc[nH]c2c1ccn2[C@@H]1O[C@H]([C@H](O)c2ccc(Cl)c(Cl)c2)[C@@H](O)[C@H]1O.Cl  Rep 2 Live Cells [Fold Change]  Fold Change               1

Short answer for `Nc1nc2cc(CC[C@H]3C[C@@H](n4ccc5c(N)ncnc54)[C@H](O)[C@@H]3O)ccc2cc1Br` : Rep 2 Live Cells [Fold Change] was 1

Short answer for `Nc1ncnc2c1ccn2[C@@H]1O[C@H]([C@H](O)c2ccccc2)[C@@H](O)[C@H]1O` : Rep 2 Live Cells [Fold Change] was 1

Short answer for `O=C(NC[C@H](O)CN1CCc2ccccc2C1)c1cc(NC2COC2)ncn1` : Rep 2 Live Cells [Fold Change] was 1

---

# System: Mec-1 cells
# METHOD_NOTES: Cell growth curves over 12 days, Mec-1
# Assay type: cell-based
# RUN_CONDITIONS: Mec-1, 100 nM, day 12
Entries and their Rep 1 Live Cells [Fold Change]
I'd appreciate it if you wrote the number followed by its unit.

>>> df
                                   compound               result
0  Nc1ncnc2c1ccn2C1OC(C(O)c2ccc(Cl)c(F)c2)C(O)C1O (centres unmarked)     1.18 Fold Change
1  O=C(NC[C@H](O)CN1CCc2ccccc2C1)c1cc(NC2COC2)ncn1  615.119 Fold Change
2  CON=c1nc[nH]c2c1ccn2[C@@H]1O[C@H]([C@H](O)c2ccc(Cl)c(Cl)c2)[C@@H](O)[C@H]1O.Cl      100 Fold Change

Short answer for `Nc1ncnc2c1ccn2[C@@H]1O[C@H]([C@H](O)c2ccccc2)[C@@H](O)[C@H]1O` : Rep 1 Live Cells [Fold Change] was 2.4 Fold Change

Short answer for `Nc1nc2cc(CC[C@H]3C[C@@H](n4ccc5c(N)ncnc54)[C@H](O)[C@@H]3O)ccc2cc1Br` : Rep 1 Live Cells [Fold Change] was 1.15 Fold Change
